Origin of values: the supplement of paper PMC10567573

B1: KCTD10 (parent)
chain: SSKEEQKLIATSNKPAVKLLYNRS

Variants of: B1
assay-details: protein stability index of a GFP-peptide fusion (GPS, HEK-293T) (PSI 1-6); higher = more stable;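 further: lentivirally expressed fusions sorted by FACS into six bins by GFP to DsRed ratio, PSI derived from sequencing read proportions per bin multiplied by bin number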
assay-setup: c terminus: a fixed tail appended
I'd appreciate it if you could supply protein stability index values for the items below.
One number for each entry.

1. S1A : 3.87

// each variant listed below needs its protein stability index
1. R23Y
2. S2F

1: 3.32; 2: 3.57
